Test system: Pseudomonas aeruginosa PA14
Assay: In vitro antibacterial activity (growth inhibition, OD600), P. aeruginosa
Type: cell-based
Conditions: PA14, 50 μM compound, Table 1 and main text, read-out: PA14 inh. at 50 μM
ENDPOINT: inhibition at 50 µM (%)
Number only, in %; omit the unit.

O=C(Nc1cccc(N2CCNCC2)c1)c1cc(-c2cc(Cl)ccc2O)[nH]n1 [Compound 5A]	60

Now examine the next entry.
Query: Tell me measured inhibition at 50 µM for O=C(Nc1cccc(CNC2=NCCN2)c1)c1cc(-c2cc(Cl)ccc2O)[nH]n1 [Compound 7C] please.
Reply: 41

----------
Recorded log10 of MIC by entry
Test system: Escherichia coli ∆tolC
Test: microbe, parasite or virus in culture
Type: cell-based
Conditions: Escherichia coli, read-out: EcΔtolC MIC95
Scale: decimal log of MIC, MIC in µM.

Please review the entries below; each comes with its answer.
O=C(Nc1cccc(N2CCNCC2)c1)c1cc(-c2cc(Cl)ccc2O)[nH]n1 [Compound 5A]	1.32
CC(C)(C)OC(=O)N1CCN=C1NCc1ccc(NC(=O)c2cc(-c3cc(Cl)ccc3O)[nH]n2)cc1C(F)(F)F [Compound 10D]	1.26
O=C(Nc1ccc(N2CCNCC2)c(C(F)(F)F)c1)c1cc(-c2cc(Cl)ccc2O)[nH]n1 [Compound 12A]	1.28
N=C(N)N1CCN(c2cc(NC(=O)c3cc(-c4cc(Cl)ccc4O)[nH]n3)ccc2C(F)(F)F)CC1 [Compound 13G]	0.70
O=C(Nc1cccc(CNC2=NCCN2)c1)c1cc(-c2cc(Cl)ccc2O)[nH]n1 [Compound 7C]	1.11

Query: Answer with the recorded log10 of MIC for the compound listed here: CC(C)(C)OC(=O)N1CCN=C1NCc1cccc(NC(=O)c2cc(-c3cc(Cl)ccc3O)[nH]n2)c1 [Compound 7D]
Reply: 1.15

Cited source: paper PMC11938010
